- Test system: Staphylococcus aureus
- protocol: Antibacterial activity against Staphylococcus aureus ATCC 6538
- Type: functional
experimental_endpoint: MIC (µg/mL)
Report the figure in µg/mL without appending any unit label.

* CC1(C)S[C@@H]2[C@H](NC(=O)Cc3ccccc3)C(=O)N2[C@H]1C(=O)O | 1.56

Item `O=[N+]([O-])c1ccc(/N=C(/Cc2ccc(F)cc2)c2ccc(O)c(O)c2)cc1` has what recorded MIC?
50

# input molecule: `Oc1ccc(/N=C(/Cc2ccc(F)cc2)c2ccc(O)c(O)c2O)cc1` ; wanted: its MIC
50

Given `Cc1ccc(/N=C(/Cc2ccc(F)cc2)c2ccc(O)cc2O)cc1` , state its recorded MIC.
25

MIC for `Cc1ccc(/N=C(/Cc2ccc(F)cc2)c2ccc(O)c(O)c2O)cc1` ?
50

Requested read-out: MIC. Entry: `Oc1ccc(/N=C(/Cc2ccc(Cl)cc2)c2ccc(O)c(O)c2O)cc1`
25

Could you share which MIC value was measured for `Oc1ccc(/C(Cc2ccc(F)cc2)=N\c2ccc(Cl)cc2)cc1O` ?
25

# query: MIC of entry `Oc1ccc(/C(Cc2ccc(F)cc2)=N\c2ccc(Br)cc2)c(O)c1`
50
